A short record of log10 of GI50 observed with HCT 116 (colon) cells follows.
metric: log10 of GI50 (log10 of the value in µM)

>  <compound_structure_string>
CN(C)C(=O)/C(=C/c1ccc(/C=C/C(=O)NCCCCCC(=O)NO)cc1)c1ccc(F)cc1

>  <log10 of GI50>
1.00

$$$$
>  <compound_structure_string>
COc1ccc(/C(=C\c2ccc(/C=C/C(=O)NO)cc2)C(=O)NC2CC2)cc1

>  <log10 of GI50>
1.18

$$$$
>  <compound_structure_string>
CN(C)C(=O)/C(=C/c1ccc(/C=C/C(=O)Nc2ccccc2N)cc1)c1ccc(F)cc1

>  <log10 of GI50>
1.36

$$$$
>  <compound_structure_string>
CNC(=O)/C(=C/c1ccc(/C=C/C(=O)NO)cc1)c1ccc(F)cc1

>  <log10 of GI50>
0.89

$$$$
>  <compound_structure_string>
O=C(/C=C/c1ccc(/C=C(/C(=O)NC2CC2)c2ccccc2Cl)cc1)NO

>  <log10 of GI50>
-0.10

$$$$
>  <compound_structure_string>
O=C(NC1CC1)/C(=C/c1ccc(C(=O)NCc2ccc(C(=O)NO)cc2)cc1)c1ccc(F)cc1Cl

>  <log10 of GI50>
1.48

$$$$
>  <compound_structure_string>
O=C(/C=C/c1ccc(/C=C(/C(=O)N2CCOCC2)c2ccccc2F)cc1)NO

>  <log10 of GI50>
0.45

$$$$
>  <compound_structure_string>
O=C(CCCCCNC(=O)c1ccc(/C=C(/C(=O)NC2CC2)c2ccccc2F)cc1)NO

>  <log10 of GI50>
1.51

$$$$
>  <compound_structure_string>
Cc1ccccc1/C(=C\c1ccc(C(=O)Nc2ccccc2N)cc1)C(=O)NC1CC1

>  <log10 of GI50>
0.45

$$$$
>  <compound_structure_string>
O=C(/C=C/c1ccc(/C=C(/C(=O)N2CCOCC2)c2ccc(F)cc2)cc1)NCCCCCC(=O)NO

>  <log10 of GI50>
1.28

$$$$
>  <compound_structure_string>
O=C(/C=C/c1ccc(/C=C(/C(=O)Nc2ccccc2)c2cccc(OC3CCCC3)c2)cc1)NO

>  <log10 of GI50>
0.85

$$$$
>  <compound_structure_string>
Cc1ccc(/C(=C\c2ccc(C(=O)NCc3ccc(C(=O)NO)cc3)cc2)C(=O)NC2CC2)cc1

>  <log10 of GI50>
0.30

$$$$
>  <compound_structure_string>
CC(C)NC(=O)/C(=C/c1ccc(/C=C/C(=O)NO)cc1)c1ccc(F)c(F)c1

>  <log10 of GI50>
0.08

$$$$
>  <compound_structure_string>
Cc1ccc(/C(=C\c2ccc(/C=C/C(=O)NCCCCCC(=O)NO)cc2)C(=O)NC2CC2)cc1

>  <log10 of GI50>
0.70

$$$$
